The reported numbers originate from BigSolDB 2.1.

Details: in isobutanol, 303.15 K
Measured Property: solubility (mole fraction)
One number for each entry.

For "O=C(O)Cc1ccc([N+](=O)[O-])cc1" the compound record lists solubility (mole fraction) as 0.0464

###

Details: in methanol, 303.15 K
Measured Property: solubility (mole fraction)
Numbers only.

// "O=C(O)Cc1ccc([N+](=O)[O-])cc1" : solubility (mole fraction) value = 0.195

###

Conditions: in ethanol, 298.15 K
Measured Property: solubility (mole fraction)
One number for each entry.

The compound "O=C(O)Cc1ccc([N+](=O)[O-])cc1" showed solubility (mole fraction) equal to 0.111
